# Subject Of Test: IDO (Homo sapiens)
# Sequence (P14902 whole entry): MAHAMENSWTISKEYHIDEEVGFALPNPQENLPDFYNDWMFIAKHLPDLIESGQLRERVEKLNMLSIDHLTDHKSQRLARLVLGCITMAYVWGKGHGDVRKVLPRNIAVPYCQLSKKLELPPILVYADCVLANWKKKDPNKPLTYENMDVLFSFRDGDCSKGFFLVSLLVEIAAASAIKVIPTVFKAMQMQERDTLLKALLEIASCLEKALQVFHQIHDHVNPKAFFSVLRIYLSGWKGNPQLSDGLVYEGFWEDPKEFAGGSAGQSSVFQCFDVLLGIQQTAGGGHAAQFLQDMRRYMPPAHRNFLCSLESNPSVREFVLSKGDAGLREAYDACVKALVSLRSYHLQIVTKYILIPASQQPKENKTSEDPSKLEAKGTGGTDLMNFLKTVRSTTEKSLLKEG
# Assay Overview: hIDO biochemical coupled assay
# Conditions: 45 μM L-tryptophan; read-out: hIDO biochemical assay pIC50 (converted)
Measure: IC50 (µM)

Here are 3 molecules together with their reported answers.
{"Molecule": "CS(=O)(=O)N1CCN(c2cc(Cl)cc3[nH]ncc23)CC1 [Compound 28]", "IC50 [µM]": 22.4}
{"Molecule": "OC1(c2cc(Cl)cc3[nH]ncc23)CCCCC1 [Compound 273, 1-(6-chloro-1H-indazol-4-yl)cyclohexanol]", "IC50 [µM]": 11.7}
{"Molecule": "CC1(C)CN(c2cc(Cl)cc3[nH]ncc23)CCN1S(C)(=O)=O [Compound 45]", "IC50 [µM]": 0.447}

A: CC1(C)CN(c2cc(Cl)cc3[nH]ncc23)CCC12NC(=O)NC2=O (stereo not drawn) [Compound 424]
B: CS(=O)(=O)c1ccc(-c2cc(Cl)cc3[nH]ncc23)cc1 [Compound 192]
C: CS(=O)(=O)N1CCC(c2cc(Cl)cc3[nH]ncc23)CC1 [Compound 40]
D: O=C1N[C@H]2CC[C@@H]1CN(c1cc(Cl)cc3[nH]ncc13)C2 [Compound 393]
E: CC(=O)NC1CCC(c2cc(Cl)cc3[nH]ncc23)CC1 (mixture of isomers) [Compound 155]
Exercise: Given 5 molecules, produce a descending ranking by IC50. I'd appreciate it if you listed the labels in the requested order.
Key: E, D, B, C, A
(E: 191 µM, D: 51.3 µM, B: 15.5 µM, C: 2.34 µM, A: 0.347 µM)

* * *

// reported IC50 per item
# Subject Of Test: IDO (Homo sapiens)
# Assay Overview: SKOV3 kynurenine cell-based assay (IDO induced by IFN-γ)
# Design: IDO expression was induced in the SKOV3 cells by the addition of 500 ng/ml IFN-γ; endogenous in cells; host or cells: SKOV3 (human ovarian adenocarcinoma), induced with IFN-γ
# Conditions: SKOV3 human ovarian adenocarcinoma cells, 500 ng/ml IFN-γ, 48 hours, 500 μM L-tryptophan; read-out: SKOV3 Kynurenine cell based assay pIC50 (converted)

{"Compound": "CS(=O)(=O)c1ccc(-c2cc(Cl)cc3[nH]ncc23)c(F)c1 [Compound 297]", "IC50": "< 3.16 µM"}
{"Compound": "O=C(CO)N1CCC(c2cc(Cl)cc3[nH]ncc23)CC1 [Compound 167]", "IC50": "3.24 to 31.6 µM"}
{"Compound": "CS(=O)(=O)NCCN1CCN(c2cc(Cl)cc3[nH]ncc23)CC1 [Compound 403]", "IC50": "> 100 µM"}
{"Compound": "CN(C)C(=O)N1CCN(c2cc(Cl)cc3[nH]ncc23)CC1 [Compound 82]", "IC50": "3.24 to 31.6 µM"}
{"Compound": "O=C1NCCN1C1CCN(c2cc(Cl)cc3[nH]ncc23)CC1 [Compound 410]", "IC50": "3.24 to 31.6 µM"}
{"Compound": "Cc1nc2c([nH]1)CN(c1cc(Cl)cc3[nH]ncc13)CC2 [Compound 211]", "IC50": "32.4 to 100 µM"}
{"Compound": "CCC(=O)N1CCC(c2cc(Cl)cc3[nH]ncc23)CC1 [Compound 170]", "IC50": "3.24 to 31.6 µM"}
{"Compound": "CC(=O)N1CC2(C1)CN(c1cc(Cl)cc3[nH]ncc13)C2 [Compound 402]", "IC50": "< 3.16 µM"}
{"Compound": "O=C1NC2(CCN(c3cc(Cl)cc4[nH]ncc34)CC2)C(=O)N1CC1CCOCC1 [Compound 391]", "IC50": "< 3.16 µM"}
{"Compound": "CC(=O)N1CCN(c2cccc3[nH]ncc23)CC1 [Compound 11]", "IC50": "32.4 to 100 µM"}

Exercise: Lookup: IC50 / IDO (Homo sapiens) / O=S(=O)(c1ccccc1)N1CCN(c2cccc3[nH]ncc23)CC1 [Compound 15]
Key: 32.4 to 100 µM

Exercise: # query: IC50 | item CS(=O)(=O)N1CCN(c2cc(Br)cc3[nH]ncc23)CC1 [Compound 96] | system: IDO (Homo sapiens)
Key: 3.24 to 31.6 µM

Exercise: Notebook: pull reported IC50 for IDO (Homo sapiens), entry CN1CC2CN(c3cccc4[nH]ncc34)CCN2C1=O (centres unmarked) [Compound 47]
Key: > 100 µM

Exercise: Lookup: IC50 / IDO (Homo sapiens) / CC(=O)N1CCC(c2cc(OC(F)(F)F)cc3[nH]ncc23)CC1 [Compound 275]
Key: 32.4 to 100 µM

Exercise: Any idea what IC50 came out for CS(=O)(=O)N1CCC(c2cc(C(F)F)cc3[nH]ncc23)CC1 [Compound 387] on IDO (Homo sapiens)?
Key: 3.24 to 31.6 µM

Exercise: Value wanted: IC50 (IDO (Homo sapiens)) of entry CC(=O)N1CCN(c2cc(Cl)cc3[nH]ncc23)CC1(C)C [Compound 46]
Key: < 3.16 µM

Exercise: Quick check: IC50 on IDO (Homo sapiens), item CC(=O)N1CCN(c2cc(Br)cc3[nH]ncc23)CC1 [Compound 76] ?
Key: 3.24 to 31.6 µM

Exercise: Find IC50 (IDO (Homo sapiens)) for the entry CC(=O)N1CCN(c2cc(Cl)cc3c2cnn3C)CC1(C)C [Compound 104]
Key: 32.4 to 100 µM

Exercise: Request: IC50, test system IDO (Homo sapiens), entry CC(=O)NCC1CCCN(c2cc(Cl)cc3[nH]ncc23)C1 (centres unmarked) [Compound 283]
Key: 3.24 to 31.6 µM

Exercise: Return IC50 measured with IDO (Homo sapiens) given this compound: Clc1cc(N2CCC(c3nccs3)CC2)c2cn[nH]c2c1 [Compound 313]
Key: 3.24 to 31.6 µM

Exercise: Query for IDO (Homo sapiens): what IC50 does the record show for CC(=O)N1CCC(c2cc(C3CCCC3)cc3[nH]ncc23)CC1 [Compound 217] ?
Key: 32.4 to 100 µM

Exercise: API: value(readout= IC50, system= IDO (Homo sapiens), query= CC(=O)N(C)c1cc(N2CCN(S(C)(=O)=O)C(C)(C)C2)c2cn[nH]c2c1 [Compound 311] )
Key: 3.24 to 31.6 µM

Exercise: What IC50 appears in the records for this compound with IDO (Homo sapiens)? COC(=O)CN1CCN(c2cc(Cl)cc3[nH]ncc23)CC1(C)C [Compound 414]
Key: > 100 µM

Exercise: Requested read-out IC50, target or system IDO (Homo sapiens), entry CC(C)CNC(=O)c1cc(Cl)cc2[nH]ncc12 [Compound 238]
Key: 32.4 to 100 µM

Exercise: Lab note: need IC50 for CS(=O)(=O)NCC1CCN(c2cc(Cl)cc3[nH]ncc23)CC1 [Compound 98] on IDO (Homo sapiens), anyone have it?
Key: 3.24 to 31.6 µM

Exercise: Item CS(=O)(=O)N1CCC(c2cc(C3CCCC3)cc3[nH]ncc23)CC1 [Compound 218] with IDO (Homo sapiens) - IC50?
Key: 32.4 to 100 µM
